# Tested on: Trichoderma viride
# experiment: Antifungal activity against Trichoderma viride MTCC 167 after 24 to 48 hrs by agar diffusion method
# Format: functional
# measurement_setup: Trichoderma viride, MTCC 167
# MIC values compiled below
# output: bare number, implied unit µg/mL

Sample records with MIC:
> print(dat)
                                   compound      u  recorded.number
1  CCCCc1nc(Cl)c(C2CC(c3cc(Cl)c(C)c(Br)c3O)=NN2c2nc(-c3ccc(Cl)cc3)cs2)[nH]1 (stereo not drawn)  µg/mL               50
2  CCCCc1nc(Cl)c(C2CC(c3cc(Br)cc(Br)c3O)=NN2c2nc(-c3ccc(Cl)cc3)cs2)[nH]1 (stereo not drawn)  µg/mL               25

Now for another entry.
Response field MIC (Trichoderma viride) for item CCCCc1nc(Cl)c(C2CC(c3cc(Cl)c(C)cc3O)=NN2c2nc(-c3ccc(Cl)cc3)cs2)[nH]1 (stereo not drawn) : 25
